- Tested on: Staphylococcus
- assay_summary: Antibacterial activity against methicillin-resistant coagulase-negative Staphylococcus clinical isolate after 18 hrs by agar dilution method
- Format: functional
MIC reference
assay_metric: MIC (µg/mL)

{"compound": "O=C1O[C@@H](Cn2ccnn2)CN1c1ccc(N2CCOCC2)c(F)c1", "val": 0.5}
{"compound": "O=C(CC1CC2CCC1C2)N1CCN(c2ccc(N3C[C@H](Cn4ccnn4)OC3=O)cc2F)CC1 (some centres undefined)", "val": 2}
{"compound": "CCCCCCC(=O)N1CCN(c2ccc(N3C[C@H](Cn4ccnn4)OC3=O)cc2F)CC1", "val": 2}
{"compound": "CCC(=O)N1CCN(c2ccc(N3C[C@H](Cn4ccnn4)OC3=O)cc2F)CC1", "val": 1}
{"compound": "O=C(C1CCCCC1)N1CCN(c2ccc(N3C[C@H](Cn4ccnn4)OC3=O)cc2F)CC1", "val": 1}
{"compound": "CC(C)C(=O)N1CCN(c2ccc(N3C[C@H](Cn4ccnn4)OC3=O)cc2F)CC1", "val": 1}
{"compound": "CCCCCC(=O)N1CCN(c2ccc(N3C[C@H](Cn4ccnn4)OC3=O)cc2F)CC1", "val": 1}
{"compound": "CCCCCCCCC(=O)N1CCN(c2ccc(N3C[C@H](Cn4ccnn4)OC3=O)cc2F)CC1", "val": 4}
{"compound": "CC(=O)NC[C@H]1CN(c2ccc(N3CCOCC3)c(F)c2)C(=O)O1", "val": 1}
